meta.source: PubChem BioAssay (NCI)

Test system: NCI/ADR-RES ovarian
assaySummary: NCI tumour cell line growth inhibition, 48 h; in the data active means GI50 below about 0.43 µM; inactive means the rest
Outcomes: active, inactive

1) Cc1ccc(-c2cc3c4c(nc5ccccc53)C(=O)c3cccnc3-c4n2)cc1
inactive
2) COc1ccc2c(O)c(/C=C3\N=Nc4ccccc43)oc2c1C[C@@H]1CCNC[C@H]1F
inactive
3) N=C(N)SCc1c2ccccc2c(CSC(=N)N)c2ccccc12
inactive
4) COCCNc1ccc2c3c(cccc13)C(=O)N(CCN(C)C)C2=O
inactive
5) COc1cccc(/C=N/NC(=O)c2ccccc2N2CCCC2)c1O
inactive
6) CCCCCCCCC/C(=N\NC(=O)c1ccncc1)c1ccc(O)c(O)c1O
active
7) CC(C)(C)[Si](C)(C)OC1[C@@H](O[Si](C)(C)C(C)(C)C)[C@@H](CNC(=O)NC(=O)CF)O[C@H]1n1cnc2c(NC(=O)Nc3ccccc3)ncnc21 (some centres undefined)
inactive
8) CC(=O)Nc1c(I)c(NC(C)=O)c(I)c(C(=O)O)c1I
inactive
9) O=c1[nH]c(=O)c2cc3cc(C4CC(O)C(CO)O4)ccc3cc2[nH]1 (centres undefined)
inactive
10) COc1ccc(Nc2cc(C)nc(NCc3ccccc3)n2)cc1
inactive
11) C=C1C(=O)O[C@H]2C[C@@H]1CC/C(C)=C/CC/C(C)=C/CC[C@@]2(C)O
inactive
12) C#CCN(Cc1nc2cc(C(F)(F)F)ccc2nc1-c1ccccc1)c1ccc(C)cc1
inactive
13) N#C[Se]CCN1C(=O)C2C(C1=O)[C@H]1C=C[C@@H]2S1 (some centres undefined)
inactive
14) C[C@]12CC[C@@H]3c4cc(O)c(O)cc4CC[C@H]3[C@@H]1CC[C@@H]2O
inactive
